# target-entity: Nuclear receptor coactivator 2 (Homo sapiens) (UniProt Q15596)
# Sequence (Q15596 whole entry, looked up, the tested form may be a part): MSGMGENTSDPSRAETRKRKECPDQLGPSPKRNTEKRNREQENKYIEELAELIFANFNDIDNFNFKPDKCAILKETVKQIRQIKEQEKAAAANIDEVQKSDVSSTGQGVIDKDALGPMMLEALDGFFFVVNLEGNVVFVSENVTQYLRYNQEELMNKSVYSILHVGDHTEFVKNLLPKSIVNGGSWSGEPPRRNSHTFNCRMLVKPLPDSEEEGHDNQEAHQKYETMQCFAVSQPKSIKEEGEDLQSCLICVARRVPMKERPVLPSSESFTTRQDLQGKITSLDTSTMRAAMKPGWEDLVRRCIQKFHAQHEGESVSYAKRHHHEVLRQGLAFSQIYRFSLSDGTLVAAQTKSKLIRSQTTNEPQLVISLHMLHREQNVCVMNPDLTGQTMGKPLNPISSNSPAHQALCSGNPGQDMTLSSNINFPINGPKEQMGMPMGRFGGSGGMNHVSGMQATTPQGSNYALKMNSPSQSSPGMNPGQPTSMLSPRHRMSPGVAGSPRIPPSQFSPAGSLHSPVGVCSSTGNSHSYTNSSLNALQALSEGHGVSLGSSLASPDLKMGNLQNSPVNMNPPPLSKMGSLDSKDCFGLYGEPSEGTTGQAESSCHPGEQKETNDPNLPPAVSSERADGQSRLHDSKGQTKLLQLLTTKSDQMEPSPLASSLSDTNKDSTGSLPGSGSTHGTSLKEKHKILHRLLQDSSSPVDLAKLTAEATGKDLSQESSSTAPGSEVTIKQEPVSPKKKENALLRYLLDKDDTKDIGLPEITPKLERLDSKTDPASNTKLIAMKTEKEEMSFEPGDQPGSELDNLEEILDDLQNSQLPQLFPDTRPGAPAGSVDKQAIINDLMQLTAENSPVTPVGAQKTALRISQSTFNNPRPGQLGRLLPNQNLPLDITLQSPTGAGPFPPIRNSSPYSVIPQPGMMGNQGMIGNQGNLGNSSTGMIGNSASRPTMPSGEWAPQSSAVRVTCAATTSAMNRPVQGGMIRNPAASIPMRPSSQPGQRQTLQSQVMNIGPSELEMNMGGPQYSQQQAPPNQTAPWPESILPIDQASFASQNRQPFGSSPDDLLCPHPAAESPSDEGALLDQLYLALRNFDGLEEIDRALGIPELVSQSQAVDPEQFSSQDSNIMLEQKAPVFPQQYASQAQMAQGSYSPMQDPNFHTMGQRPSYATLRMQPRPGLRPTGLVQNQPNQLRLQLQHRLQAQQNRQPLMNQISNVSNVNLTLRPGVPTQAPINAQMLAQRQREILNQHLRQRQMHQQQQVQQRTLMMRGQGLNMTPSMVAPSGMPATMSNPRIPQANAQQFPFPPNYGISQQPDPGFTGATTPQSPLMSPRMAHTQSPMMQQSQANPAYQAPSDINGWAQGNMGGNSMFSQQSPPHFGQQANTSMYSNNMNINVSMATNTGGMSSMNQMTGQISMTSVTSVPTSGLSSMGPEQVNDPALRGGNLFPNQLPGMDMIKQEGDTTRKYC
# procedure-text: inhibition of GAL4-SRC2 driven luciferase reporter, primary screen, SRC2 inhibitor project, cell-based, luminescence (AID 651957);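 further: 0% = DMSO treated cells and 100% = cells given Gossypol at 36 µM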
# run-conditions: HEK293 GAL4-SRC2 luciferase reporter, at 9 µM, hits give high values
About 620 (0.17%) of roughly 370,000 compounds were called active. Only a selection was taken, and actives are over-represented in it overall.

{"compound": "COC(=O)[C@@H]1C[C@@]2(O)[C@@H](O)[C@@H](O)[C@@H](O)C[C@H]2N1Cc1ccc(C)s1", "inhibition": "-14.3% (inactive)"}
{"compound": "CCOC(=O)N1CCN(C(=O)C[C@H]2C[C@@]3(C(=O)OC)C(=C[C@H](C(C)(C)C)O[C@@H]3C)N(Cc3ccc(Cl)cc3Cl)C2=O)CC1", "inhibition": "23.9% (inactive)"}
{"compound": "COc1ccc(C(=O)Nc2ccccc2C(=O)N/N=C/c2ccc(O)c(OC)c2)cc1", "inhibition": "55% (active)"}
{"compound": "O=C1NC(c2ccccc2)CCC1(Cl)Cl (stereo unspecified)", "inhibition": "-13.7% (inactive)"}
{"compound": "COc1cc(C(=O)Nc2cc(C(F)(F)F)ccc2N2CCOCC2)ccc1O", "inhibition": "-7.29% (inactive)"}
{"compound": "Cc1csc(NC(=O)CN2CCCCCC2)n1", "inhibition": "-13.9% (inactive)"}
{"compound": "Cc1ccccc1NC(=O)Cn1nnc(-c2ccccc2F)n1", "inhibition": "11.4% (inactive)"}
{"compound": "CC(C)N1CCCCC(NC(=O)c2ccc3ccccc3c2)C1=O (stereo unspecified)", "inhibition": "-10% (inactive)"}
{"compound": "COc1cc(/C=C/C(=O)OCC(=O)Nc2cccc(Oc3ccccc3)c2)ccc1O", "inhibition": "11.1% (inactive)"}
{"compound": "Cc1c(C(C)c2ccccc2O)[nH]c2ccccc12 (stereo unspecified)", "inhibition": "-18.6% (inactive)"}
{"compound": "O=C1NC(c2ccccc2)Oc2ccccc21 (stereo unspecified)", "inhibition": "-0.1% (inactive)"}

----------
As shown below, each of these molecules has a reported inhibition value.
# target-entity: Nuclear receptor coactivator 2 (Homo sapiens)
# procedure-text: inhibition of GAL4-SRC2 driven luciferase reporter, primary screen, SRC2 inhibitor project, cell-based, luminescence (AID 651957);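 further: 0% = DMSO treated cells and 100% = cells given Gossypol at 36 µM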
# run-conditions: HEK293 GAL4-SRC2 luciferase reporter, at 9 µM, hits give high values
Among all 370,000 compounds or so, about 620 (0.17%) were called active. Many of the other results were omitted from the sample, so actives are more common in it than they were.

{"molecule": "O=C(COC(=O)c1cnccn1)Nc1cccc2ccccc12", "inhibition": "-4.93% (inactive)"}
{"molecule": "Cc1ccc(S(=O)(=O)N(C)CC(=O)N2CCc3ccccc32)cc1", "inhibition": "-6.78% (inactive)"}
{"molecule": "O=C(CN1C(=O)c2ccccc2S1(=O)=O)N1CCc2ccccc21", "inhibition": "73.3% (active)"}
{"molecule": "COCc1[nH]nc2c1C(c1ccccc1)N(c1ccccc1)C2=O (stereo unspecified)", "inhibition": "13.8% (inactive)"}
{"molecule": "Nn1c(SCC(=O)Nc2ccc(S(N)(=O)=O)cc2)nnc1-c1n[nH]c2c1CCC2", "inhibition": "10.6% (inactive)"}
{"molecule": "Cc1ccccc1NC(=O)COC(=O)c1ccc(Sc2ncn[nH]2)c([N+](=O)[O-])c1", "inhibition": "-15.7% (inactive)"}
{"molecule": "CC(OC(=O)CN1C(=O)C2CCCCC2C1=O)C(=O)Nc1ncc(Cl)cc1Cl (stereo unspecified)", "inhibition": "1.55% (inactive)"}
{"molecule": "NS(=O)(=O)c1ccc(CCNC(=O)CN2C(=O)c3ccccc3S2(=O)=O)cc1", "inhibition": "1.66% (inactive)"}
{"molecule": "CC(=O)OC12CCCN(C1)/C(=C/c1ccncc1)C2 (stereo unspecified)", "inhibition": "12.7% (inactive)"}
{"molecule": "CCOC(=O)C1CCCN(C(=O)c2cccc3ccccc23)CC1 (stereo unspecified)", "inhibition": "7.84% (inactive)"}
{"molecule": "CC1=CC(C)(C)Nc2ccc(OC(=O)CN3C(=O)C4CCCCC4C3=O)cc21 (stereo unspecified)", "inhibition": "52.7% (active)"}
